# IC50 per entry for Epidermal growth factor receptor (Homo sapiens)
Answer in µM, number only, no unit symbol.

Field IC50 (system: Epidermal growth factor receptor (Homo sapiens)) for entry N#Cc1cnc2c(Br)cc(NCc3c[nH]cn3)cc2c1Nc1ccc(F)c(Cl)c1 = 3.3

Now take the following molecule into account.
Note to self: IC50 of N#Cc1cnc2c(Cl)cc(NCc3cccc[n+]3[O-])cc2c1Nc1ccc(F)c(Cl)c1 with Epidermal growth factor receptor (Homo sapiens) was 2.9

====

ASSAY INFO: Half life in Sprague-Dawley rat at 5 mg/kg, iv
Format: ADME, organism-based
Design: dose 5 mg/kg, route intravenous
STATED CONDITIONS: in vivo
Measured half-life, listed per entry.
Write down the numeric answer in h and omit the unit.

Example results:
Recorded result, CCCc1[nH]cnc1CNc1cc(Cl)c2ncc(C#N)c(Nc3ccc(F)c(Cl)c3)c2c1 , half-life: 1.2

half-life reading for N#Cc1cnc2c(Cl)cc(NCc3cccc[n+]3[O-])cc2c1Nc1ccc(F)c(Cl)c1 : 0.8

half-life for N#Cc1cnc2c(Br)cc(NCc3cn[nH]n3)cc2c1Nc1ccc(F)c(Cl)c1 is 3.2

Kindly note the recorded half-life for N#Cc1cnc2c(Cl)cc(NCc3cnc[nH]3)cc2c1Nc1ccc(F)c(Cl)c1 , which is 4.4

Now look at this one.
# half-life of Cn1cnc(CNc2cc(Br)c3ncc(C#N)c(Nc4ccc(F)c(Cl)c4)c3c2)c1 = 5

====

ASSAY INFO: physchem
STATED CONDITIONS: buffer, pH 7.4
PROPERTY MEASURED: solubility

Measured solubility of Cn1cnc(CNc2cc(Br)c3ncc(C#N)c(Nc4ccc(F)c(Cl)c4)c3c2)c1 : < 10 µg/mL

Data point: N#Cc1cnc2c(Br)cc(NCc3cn(CCN4CCOCC4)cn3)cc2c1Nc1ccc(F)c(Cl)c1 ; solubility = 69 µg/mL

According to the records, this compound N#Cc1cnc2c(Cl)cc(NCc3cccc[n+]3[O-])cc2c1Nc1ccc(F)c(Cl)c1 displays solubility of < 10 µg/mL

solubility reading for CCCc1[nH]cnc1CNc1cc(Cl)c2ncc(C#N)c(Nc3ccc(F)c(Cl)c3)c2c1 : < 10 µg/mL

Looking up N#Cc1cnc2c(Br)cc(NCc3cn[nH]n3)cc2c1Nc1ccc(F)c(Cl)c1 , I found its solubility recorded as < 10 µg/mL

solubility recorded for this compound, N#Cc1cnc2c(Br)cc(NCc3c[nH]cn3)cc2c1Nc1ccc(F)c(Cl)c1 , is 2 µg/mL

Alright, here's another compound for you.
Measured solubility, N#Cc1cnc2c(Cl)cc(NCc3cnc[nH]3)cc2c1Nc1ccc(F)c(Cl)c1 : < 10 µg/mL

====

Below: a set of entries, each annotated with reported clearance.
ASSAY INFO: Plasma clearance in Sprague-Dawley rat at 5 mg/kg, iv
Type: ADME, organism-based
Parameters: dose 5 mg/kg, route intravenous

Given item N#Cc1cnc2c(Cl)cc(NCc3cnc[nH]3)cc2c1Nc1ccc(F)c(Cl)c1 , the value recorded as its clearance is 19 mL/min/kg

Entry under test: CCCc1[nH]cnc1CNc1cc(Cl)c2ncc(C#N)c(Nc3ccc(F)c(Cl)c3)c2c1 . Its clearance was > 100 mL/min/kg

# compound Cn1cnc(CNc2cc(Br)c3ncc(C#N)c(Nc4ccc(F)c(Cl)c4)c3c2)c1 ; its clearance = 50 mL/min/kg

Entry under test: N#Cc1cnc2c(Cl)cc(NCc3cccc[n+]3[O-])cc2c1Nc1ccc(F)c(Cl)c1 . Its clearance was 38 mL/min/kg

Data point: N#Cc1cnc2c(Br)cc(NCc3cn[nH]n3)cc2c1Nc1ccc(F)c(Cl)c1 ; clearance = 29 mL/min/kg

The measured values listed here are drawn from ChEMBL document CHEMBL1148782.
